Attribution: paper PMC9167512

Substrate: Oc1ccccc1O
assay-comment: purified protein
reported-conditions: 0.1 M PBS pH 7.5, 25 °C, O2 co-substrate (air), Fe enzyme, kcat corrected for iron content
experimental-readout: kcat
Answer shape: numeric part, then the unit.

1. TuDOG16 (Tetranychus urticae) (protein, signal peptide removed, N-terminal 6xHis kept, pJExpress 411, E. coli BL21(DE3), codon optimized (ATUM), 25-37 kDa) HSERPGKFLEHDRSIVNCARYKREANQHTCVLAPFATEGPYFLADDLERSDITDGQTGVNLDLNLKLTNAKDCSPLSGYFVHIWNANALGHYSGVQEFNKFPKQTFRPKPIYDTRWLRGYQVTNEDGEVNFKTIVPGWYYGRCLHIHVEVYSKNTTDTNAITYIGQLYFKRELPVQLKLVEPYSSNQNELKFNEQDKVFNGMHGNDTITELVFEENNAKTSFILALDPTVTTLTNGTVVN | 0.00805 s⁻¹

I would be grateful if you could provide kcat for each of the following entries.
1. TuDOG7 (Tetranychus urticae) (protein) ERSIEILNHDATVIDCARYKREANQHKCVITPFTTEGPYFLPDDYERSDITDGYTGVNLNLTLLLTNAKDCSPLSNYYVHIWNANAMGHYSGVKEFNFFDHPTFRPKPINNLRFLRGYQITNEDGLVNFNTIIPGWYFGRCIHIHVEIYDKNTTDGHAVSYIGQLYFNREMPAALKLIDPYSQNNNELTLNDQDIVFALSRGSDTILELIPEGNGYSASYVLSIDPTVKVENSVLPFEDPRNVSFIEH
2. TuDOG15 (Tetranychus urticae) (protein) DHERPGKYLEHDSTVINCARYKREANQHSCVLAPYAVEGPYFLPDDLERSNLAEDKVGVSLDLAIRLVNSNDCTPLTNMFVHVWHADALGVYSGVPDLAELFVERMRQENKTLPPFWGPEGAYEGRRPGGPGGPGGPGGPGGPGDMEMPGRPTPVNNERFLRGYQVTNEAGEVNFKTIIPGWYTGRSLHIHVEVYSKNTTEPGEVNYIGQIFFKDDLPAELKLIEPYSLNQNILVLNPQDGIYNFAHGEQTKIQLENRETGYFGSMTFGINPNAH

1. 0.0223 s⁻¹
2. 0.0133 s⁻¹

I would be grateful if you could provide kcat for each of the following entries.
1. TuDOG1 (Tetranychus urticae) (protein, signal peptide removed, N-terminal 6xHis kept, pJExpress 411, E. coli BL21(DE3), codon optimized (ATUM), 25-37 kDa) DVHRRGKFLPHDRTVINCASLNRKAHQHSSVLAPFTTEGPFFLPDDLKRSDITDGQKGIPLELTIKLTNAKDCTPISNFFIHAWQTNATGVYSGIDEDTAPLSGFRPTPVNRDRSLRGYQETDANGEVKFLTILPGWYSGRAIHIHIEVYAKDITDENKITYIGQFYFEHDFPLKLRKIYPYSTNTQRIIFNEQDYYYVHDHGDETTLDLKHNGAKFSSYATVAIDPTVTVHVQ
2. TuDOG11 (Tetranychus urticae) (protein, signal peptide removed, N-terminal 6xHis kept, pJExpress 411, E. coli BL21(DE3), codon optimized (ATUM), 25-37 kDa) HLQRPGKFLPHDRSIVDCARYKREANQHTCVLAPFTTEGPYFLPDDLERSDITDGQTGVNLDLNLKLTNAKDCSPLSNYFVHVWQANALGHYSGVNELFPVGFRPKPISGERFLRGYQKTNEDGEVNFKTIIPGWYVGRCIHIHVEVYAKNNTDGNAVNYIGQLYFERDIPSSLRLVEPYSTNVNEITLNDSDGVYLLTHGNDTLIDLVPQESGFRTDYIVAIDPDVSIKYDWLDI

1. 0.0378 s⁻¹
2. 0.0534 s⁻¹
